Value source: the supplement of paper PMC11208160

assay: recombinant barcode read abundance after kanamycin selection (control-corrected) (log10(CPM+1)); higher = more efficient recombination; sequences stand for … in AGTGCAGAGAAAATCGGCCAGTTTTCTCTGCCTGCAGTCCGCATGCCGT…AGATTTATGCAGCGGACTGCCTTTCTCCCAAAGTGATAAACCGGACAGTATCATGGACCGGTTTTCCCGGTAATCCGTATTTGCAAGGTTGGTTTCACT; site = the 11-nt target
Record 1 whenever recombinant barcode read abundance (log10) is at 0.1 or higher; record -1 when lower.

>>> print(df.to_string())
                                 seq_string  answer_label
0  GGTTACCCTTGGGTTCTAACCTGTTGCGG (site GGTCACCCTCC)             1
1  GGTGCATCTTGGGTTCTAACCTGTTGCTT (site ATATGTCCTTT)            -1
2  TAAGGTACTTGGGTTCTAACCTGTTGCTT (site TAATGTACTAA)            -1
3  GGAGGTACTTGGGTTCTAACCTGTTGCCT (site GGAGGTACTAG)             1
4  CTCGGATCTTGGGTTCTAACCTGTTGCTG (site CTCGGATCTTA)             1
5  TAGAAGACTTGGGTTCTAACCTGTTGCTG (site TAGAAGACTAA)             1
6  AATCTAACTTGGGTTCTAACCTGTTGCCT (site AATCTAACTAG)             1
7  TAGGACACTTGGGTTCTAACCTGTTGCCA (site TCGGATACTTG)             1

hey, is recombinant barcode read abundance (log10) for this one >= 0.1? AATTCAGCTTGGGTTCTAACCTGTTGCCT (site AATTCAGCTAG)
1

hey, is recombinant barcode read abundance (log10) for this one >= 0.1? ACGCCTCCTTGGGTTCTAACCTGTTGCCA (site ACCCCTCCTTG)
-1

---

assay: recombinant barcode read abundance after kanamycin selection (control-corrected) (log10(CPM+1)); higher = more efficient recombination; sequences stand for … in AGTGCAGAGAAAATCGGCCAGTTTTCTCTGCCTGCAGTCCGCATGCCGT…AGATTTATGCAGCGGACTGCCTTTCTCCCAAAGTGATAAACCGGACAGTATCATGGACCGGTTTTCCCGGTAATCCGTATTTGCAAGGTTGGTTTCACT; site = the 11-nt target
Result Type: recombinant barcode read abundance (log10)
Just the number, please, no unit attached.

Solved entries:
>>> df
                                 seq_string  recorded_result
0  GTCCGTCCTTGGGTTCTAACCTGTTGCTT (site GTCCGTCCTAC)           0.0973
1  GGGTCGGCTTGGGTTCTAACCTGTTGCGG (site GGGTCGGCTTC)            0.609

Now for a further sequence.
recombinant barcode read abundance (log10) reading for GTGTATACTTGGGTTCTAACCTGTTGCAT (site GTGTATACTAT) : 0.589

---

assay: recombinant UMI read abundance after kanamycin selection (control-corrected) (log10(CPM+1)); higher = more efficient recombination; extreme values may be limits of the assay; sequences stand for … in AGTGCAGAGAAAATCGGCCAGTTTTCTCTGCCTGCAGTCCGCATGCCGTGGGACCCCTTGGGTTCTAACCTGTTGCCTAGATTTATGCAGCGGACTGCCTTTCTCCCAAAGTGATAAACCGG…AGGTTGGTTTCACT; site = the 11-nt donor
Result Type: recombinant UMI read abundance (log10)

In [3]: df
Out[3]:
                                 seq_string  recorded_result
0  TGGGCGGCATGGACCGGTTTTCCCGGTAATCCGTATTTGGC (site TGGACGGCTGC)             1.49
1  AGGAAGTCATGGACCGGTTTTCCCGGTAATCCGTATTTGCG (site AGGAAGTCTCG)             3.16

recombinant UMI read abundance (log10) reading for GCCGGTCCATGGACCGGTTTTCCCGGTAATCCGTATTTGCA (site CCCGGTCCTTG) : 0
